Property: binding signal; scope: individual sequences
system: GII.3 VLP, major capsid protein (Human norovirus GII.3); assay: ELASA; conditions: ELASA: VLPs 3 ug/ml coated, blocked with 5% skim milk in PBST plus unrelated DNA, 1 uM biotinylated aptamer (10 nM-2 uM for Kd), 1 h at RT, PBST washes
measurement.label: binding signal (T/N ratio)

>>> readout_number("AGTATACGTATTACCTGCAGCTGACCGAGTGTCTGGTCATTTTCGATGTCTGTTGTTAGGCCGATATCTCGGAGATCTTGC [SMV-26]")
2.4
>>> readout_number("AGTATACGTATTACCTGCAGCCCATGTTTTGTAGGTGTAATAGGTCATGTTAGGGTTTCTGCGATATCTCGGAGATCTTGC [SMV-21]")
11.8
>>> readout_number("AGTATACGTATTACCTGCAGCCACCAGTGTGTTGAGGTTTGAGCACACTGATAGAGTGTCACGATATCTCGGAGATCTTGC [SMV-19]")
1.7
>>> readout_number("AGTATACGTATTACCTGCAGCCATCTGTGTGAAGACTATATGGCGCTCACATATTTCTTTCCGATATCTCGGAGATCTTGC [SMV-25]")
5.4

----------
tested on: GII.17 VLP, major capsid protein (Human norovirus GII.17); experiment: ELASA; settings: ELASA: VLPs 3 ug/ml coated, blocked with 5% skim milk in PBST plus unrelated DNA, 1 uM biotinylated aptamer (10 nM-2 uM for Kd), 1 h at RT, PBST washes
measurement.label: binding signal (T/N ratio)

>>> readout_number("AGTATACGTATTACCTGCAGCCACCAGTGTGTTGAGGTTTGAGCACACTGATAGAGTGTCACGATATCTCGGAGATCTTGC [SMV-19]")
3
>>> readout_number("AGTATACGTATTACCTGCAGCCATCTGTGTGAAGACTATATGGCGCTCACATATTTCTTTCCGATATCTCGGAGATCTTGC [SMV-25]")
2
>>> readout_number("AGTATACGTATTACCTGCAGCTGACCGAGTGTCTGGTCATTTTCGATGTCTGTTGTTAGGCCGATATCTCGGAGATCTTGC [SMV-26]")
1.3
>>> readout_number("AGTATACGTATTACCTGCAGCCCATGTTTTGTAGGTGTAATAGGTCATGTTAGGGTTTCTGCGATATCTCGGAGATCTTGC [SMV-21]")
12.2

----------
binding signal reference
system: GII.1 VLP, major capsid protein (Human norovirus GII.1); assay: ELASA; details: ELASA: VLPs 3 ug/ml coated, blocked with 5% skim milk in PBST plus unrelated DNA, 1 uM biotinylated aptamer (10 nM-2 uM for Kd), 1 h at RT, PBST washes
measurement.label: binding signal (T/N ratio)

>>> readout_number("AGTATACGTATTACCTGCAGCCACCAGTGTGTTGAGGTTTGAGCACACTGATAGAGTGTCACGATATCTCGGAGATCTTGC [SMV-19]")
7.1
>>> readout_number("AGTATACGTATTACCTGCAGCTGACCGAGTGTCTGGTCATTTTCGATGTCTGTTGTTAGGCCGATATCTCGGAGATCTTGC [SMV-26]")
2.1
>>> readout_number("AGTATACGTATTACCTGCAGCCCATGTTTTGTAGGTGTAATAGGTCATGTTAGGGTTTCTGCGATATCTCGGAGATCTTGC [SMV-21]")
8.6
>>> readout_number("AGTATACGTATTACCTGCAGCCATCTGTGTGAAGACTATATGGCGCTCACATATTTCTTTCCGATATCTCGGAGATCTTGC [SMV-25]")
9.4

----------
system: GII.6 VLP, major capsid protein (Human norovirus GII.6); experiment: ELASA; details: ELASA: VLPs 3 ug/ml coated, blocked with 5% skim milk in PBST plus unrelated DNA, 1 uM biotinylated aptamer (10 nM-2 uM for Kd), 1 h at RT, PBST washes
measurement.label: binding signal (T/N ratio)

>>> readout_number("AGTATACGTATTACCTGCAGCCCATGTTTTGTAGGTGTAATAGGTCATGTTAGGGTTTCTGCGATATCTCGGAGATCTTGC [SMV-21]")
3
>>> readout_number("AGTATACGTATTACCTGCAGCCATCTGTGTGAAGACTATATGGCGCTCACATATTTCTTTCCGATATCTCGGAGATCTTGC [SMV-25]")
7.3
>>> readout_number("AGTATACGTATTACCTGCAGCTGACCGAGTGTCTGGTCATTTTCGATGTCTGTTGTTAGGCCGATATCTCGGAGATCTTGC [SMV-26]")
2.8
>>> readout_number("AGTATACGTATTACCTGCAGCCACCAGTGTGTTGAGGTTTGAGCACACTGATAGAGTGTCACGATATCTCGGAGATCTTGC [SMV-19]")
1.8

----------
system: GI.6 VLP, major capsid protein (Human norovirus GI.6); experiment: ELASA; conditions: ELASA: VLPs 3 ug/ml coated, blocked with 5% skim milk in PBST plus unrelated DNA, 1 uM biotinylated aptamer (10 nM-2 uM for Kd), 1 h at RT, PBST washes
measurement.label: binding signal

>>> result("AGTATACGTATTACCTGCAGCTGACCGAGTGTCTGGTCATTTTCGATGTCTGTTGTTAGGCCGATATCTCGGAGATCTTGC [SMV-26]")
"1.5 T/N ratio"
>>> result("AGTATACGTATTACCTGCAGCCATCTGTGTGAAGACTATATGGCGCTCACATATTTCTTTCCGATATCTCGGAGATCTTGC [SMV-25]")
"2.4 T/N ratio"
>>> result("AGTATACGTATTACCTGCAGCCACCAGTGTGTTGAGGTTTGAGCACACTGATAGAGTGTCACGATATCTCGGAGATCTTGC [SMV-19]")
"3.7 T/N ratio"
>>> result("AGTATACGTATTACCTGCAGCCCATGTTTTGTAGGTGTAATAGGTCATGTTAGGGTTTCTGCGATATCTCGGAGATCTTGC [SMV-21]")
"3.8 T/N ratio"

----------
Reported binding signal values follow for various sequences
system: GI.7 VLP, major capsid protein (Human norovirus GI.7); test: ELASA; details: ELASA: VLPs 3 ug/ml coated, blocked with 5% skim milk in PBST plus unrelated DNA, 1 uM biotinylated aptamer (10 nM-2 uM for Kd), 1 h at RT, PBST washes
measurement.label: binding signal (T/N ratio)

>>> readout_number("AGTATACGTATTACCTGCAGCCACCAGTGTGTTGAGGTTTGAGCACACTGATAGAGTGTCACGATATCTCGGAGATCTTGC [SMV-19]")
10.3
>>> readout_number("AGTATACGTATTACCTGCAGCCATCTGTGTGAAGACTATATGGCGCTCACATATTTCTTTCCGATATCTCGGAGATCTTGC [SMV-25]")
3.5
>>> readout_number("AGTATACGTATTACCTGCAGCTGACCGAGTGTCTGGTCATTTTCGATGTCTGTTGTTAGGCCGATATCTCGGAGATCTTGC [SMV-26]")
1.8
>>> readout_number("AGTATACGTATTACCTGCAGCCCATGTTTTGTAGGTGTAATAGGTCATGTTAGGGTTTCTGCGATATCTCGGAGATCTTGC [SMV-21]")
8.1
